target: SpBzz1-D1; assay: SPOT peptide array binding signal intensity (averaged, normalized) (arbitrary units (background-subtracted, floor 0; scale differs between SH3 domains)); higher = stronger binding of the SH3 domain to the peptide
readout.name: SPOT peptide array binding signal intensity
Reply briefly: the number, and no unit.

# binder, recorded.number
records = [
    ("RLSRLLLSLPPESFT", 315),
    ("LKQRFFLMFPKSIIW", 103),
    ("RNNRPVPPPPPMRTT", 2280),
    ("QQEQNTPPLPPKPKS", 336),
    ("AAHKTKPSIPPKKVE", 311),
]

Data request: Tell me the measured SPOT peptide array binding signal intensity of LKRITSPPLPPRADS , please.
Data returned: 1080

Data request: Entry LLLLFVPDSPYDPAI please
Data returned: 26

Data request: Then what about the binder FFRRSELYLPNSSKA ?
Data returned: 111

Data request: Also need SPLGAPPPPPHKDHL , thanks.
Data returned: 176

Data request: Repeat for the following binder: RKRAPTPPAPSRSEK
Data returned: 428

Data request: Follow-up item: DFTLPPPPPPPGLDE
Data returned: 1300

Data request: Follow-up item: RKNRAPPQRPRFNRE
Data returned: 707

Data request: And what about the binder ILARAILTIPRVLDK ?
Data returned: 553

Data request: Okay, and GLRRARYKFPGQQKI ?
Data returned: 145

Data request: Same question for GAGERPRLVPRPINV please.
Data returned: 384

Each recorded value in this set is attributed to the supplement of paper PMC4466140.
